target_system: T1, Mdm4-L98V (amino acids 1–108) (UniProt O15151 1-108, L98V)
T1 construct: Mdm4 (also known as MdmX), amino acids 1-108, with L98V; also called L98V mutant; source: E. coli BL21(DE3), purified (HisTrap FF)
T1 sequence (looked up): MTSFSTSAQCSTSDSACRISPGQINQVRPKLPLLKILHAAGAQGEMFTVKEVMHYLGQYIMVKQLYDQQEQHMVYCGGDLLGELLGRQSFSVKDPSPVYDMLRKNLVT
assay_remarks: fluorescence polarisation; competitive fluorescence anisotropy, apparent Kd; peptides titrated at constant Mdm2/Mdm2-M62A/Mdm4 (150 nM) or Mdm4-L98V (250 nM) and FAM-labelled 12-1 peptide (50 nM); PBS pH 7.4, 4% DMSO, 0.1% Tween-20
condition: both partners purified
Bridge positions count the residues as written; N and C are the ends. Square brackets hold non-standard residues; d marks the D form. Trp(6-Cl) = N[C@@H](Cc1c[nH]c2cc(Cl)ccc12)C(=O)O; Trp(6-Me) = Cc1ccc2c(C[C@H](N)C(=O)O)c[nH]c2c1; S8 = C=CCCCCCC[C@](C)(N)C(=O)O; S5 = C=CCCC[C@](C)(N)C(=O)O
Provide the recorded Kd for the entries that follow.
One number for each entry, in nM.

Known results for binders:
TSFXEYWALLL (not fully specified; N-terminus acetylated; C-terminus amidated; (S)-2-(4′pentenyl) alanine at position 4 and (S)-2-(7′-octenyl) alanine at position 11, fused via olefin metathesis (i, i+7 hydrocarbon linkage)) [PM2 stapled peptide]: 72.3
Ac-TSF[S5]EY[Trp(6-Cl)]ALL[S8]-NH2 (bridges not given here) [M011-L, linear precursor of M011]: 594
TSFXEYWALLL (not fully specified; N-terminus acetylated; C-terminus amidated; L-6-chlorotryptophan at W23 (p53 numbering); (S)-2-(4′pentenyl) alanine at position 4 and (S)-2-(7′-octenyl) alanine at position 11, fused via olefin metathesis (i, i+7 hydrocarbon linkage)) [M011 stapled peptide]: 72.3
Ac-TSF[S5]EY[Trp(6-Me)]ALL[S8]-NH2 (staple 4-11; also: Trp(6-Me) D/L mixture, not separated) [M012 stapled peptide]: 385

Now consider the entry below.
Consider the binder shown here: Ac-TSF[S5]EY[Trp(6-Me)]ALL[S8]-NH2 (bridges not given here; also: Trp(6-Me) not enantiomerically pure) [M012-L, linear precursor of M012] What is its recorded Kd?
165
